test: chemical genetic growth profiling, strain panel (AID 1159580);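 also: tested at 20 µM; growth read once vehicle control cultures reached saturation at 30 °C; lower values mean less growth of the strain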; details: S. cerevisiae deletion strains, growth OD, locus YOR069W, strain VPS5
Screen size: about 5,500 compounds; about 2,000 (36%) were called active. Roughly 18% stayed inconclusive and do not appear here. Rule as the data show it: active = normalized growth mostly below about 0.91 (no sharp cut-off); inconclusive = no clear call, values can overlap the other calls; inactive = mostly above about 0.92. This is one part of the list.
I would appreciate it if you answered using one of these outcomes: y = active, n = inactive

Before answering, review these 3 worked examples.
1. COc1ccc(C(=O)CC(=O)c2ccc(C(C)(C)C)cc2)cc1 : n
2. CC1=C2[C@H]3OC(=O)[C@@H](C)[C@@H]3CC[C@@]2(C)C=CC1=O : n
3. CSc1ccc2c(c1)N(CCC1CCCCN1C)c1ccccc1S2 (stereo unspecified) : y

Hi, sorry to bother you, what did the test record for Nc1cc(-c2ccncc2)c[nH]c1=O ? n

What classification did CCCCCC1C(=O)CCC1CC(=O)OC (stereo unspecified) end up with in this test? n

What did this assay record as the result for Cc1nc2sccn2c(=O)c1CCN1CCC(=C(c2ccc(F)cc2)c2ccc(F)cc2)CC1 ? y

Which outcome did this test record for the compound CCN(CC)CCOC(=O)C(c1ccccc1)c1ccccc1 ? n

Lab log entry: Cc1nc2ccccn2c(=O)c1CCN1CCC(C(=O)c2ccc(F)cc2)CC1 — outcome as called in the assay? n
